Data credit: patent US12559492B2

# assay system: BRAF^V600E protein (Homo sapiens, UniProt P15056, V600E)
# Sequence (P15056 whole entry V600E): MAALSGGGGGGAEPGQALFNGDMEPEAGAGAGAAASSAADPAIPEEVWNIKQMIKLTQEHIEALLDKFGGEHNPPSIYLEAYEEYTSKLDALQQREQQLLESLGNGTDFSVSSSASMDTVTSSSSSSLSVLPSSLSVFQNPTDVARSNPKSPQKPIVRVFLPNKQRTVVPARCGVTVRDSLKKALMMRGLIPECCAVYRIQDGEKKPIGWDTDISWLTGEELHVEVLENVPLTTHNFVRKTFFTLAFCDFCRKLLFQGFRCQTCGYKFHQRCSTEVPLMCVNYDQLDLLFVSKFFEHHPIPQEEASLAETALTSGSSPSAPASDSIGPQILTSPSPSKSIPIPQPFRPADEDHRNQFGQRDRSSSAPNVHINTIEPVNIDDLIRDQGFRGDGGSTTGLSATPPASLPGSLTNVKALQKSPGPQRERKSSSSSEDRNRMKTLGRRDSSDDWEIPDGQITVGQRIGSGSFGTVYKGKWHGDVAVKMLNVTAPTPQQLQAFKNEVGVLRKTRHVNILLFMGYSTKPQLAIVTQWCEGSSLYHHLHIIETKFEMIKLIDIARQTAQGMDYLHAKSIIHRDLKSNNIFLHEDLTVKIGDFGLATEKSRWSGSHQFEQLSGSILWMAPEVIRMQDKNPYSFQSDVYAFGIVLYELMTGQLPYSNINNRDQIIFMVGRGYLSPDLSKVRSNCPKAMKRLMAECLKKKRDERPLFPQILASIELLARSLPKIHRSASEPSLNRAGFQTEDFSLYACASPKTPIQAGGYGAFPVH
# method notes: HiBiT cellular BRAF V600E degradation assay
# Assay type: cell-based
# test settings: A375.10 cells (HiBiT tag knocked in at N-terminal of BRAF V600E), 24 h incubation; concentration at which 50% of total cellular BRAF V600E is degraded
In plain terms, low DC50, meaning strictly below 4 nM, gives label 1, and everything else gives label 0.

- compound: "CC(C)S(=O)(=O)Nc1ccc(F)c(C(=O)c2c[nH]c3ncc(-c4ccc(N5CCN(C(=O)CN6CCC(c7ccc(NC8CCC(=O)NC8=O)cc7F)CC6)CC5)nc4)cc23)c1F (centres unmarked)"
  assay system: "BRAF^V600E protein (Homo sapiens, UniProt P15056, V600E)"
  class label: "label 0"
- compound: "CCN(C)S(=O)(=O)Nc1ccc(F)c(C(=O)c2c[nH]c3ncc(-c4cnc(N5CCN(C(=O)CN6CCC(c7ccc(NC8CCC(=O)NC8=O)cc7)CC6)CC5)nc4)cc23)c1F (centres unmarked) [Example 18]"
  assay system: "BRAF^V600E protein (Homo sapiens, UniProt P15056, V600E)"
  class label: "label 1"

is_below(DC50, 4 nM) for CCC(C)S(=O)(=O)Nc1ccc(F)c(C(=O)c2c[nH]c3ncc(-c4ccc(N5CCN(C(=O)CN6CCC(c7ccc(OC8CCC(=O)NC8=O)cc7)CC6)CC5)nc4)cc23)c1F (centres unmarked) ?
label 0

Strictly below 4 nM in DC50? CCN(C)S(=O)(=O)Nc1ccc(F)c(C(=O)c2c[nH]c3ncc(-c4ccc(N5CCN(C(=O)CC6(O)CCN(c7ccc(NC8CCC(=O)NC8=O)cc7)CC6)CC5)cc4)cc23)c1F (centres unmarked)
label 0

----------
Entries and their measured Emax follow.
# assay system: BRAF^V600E protein (Homo sapiens, UniProt P15056, V600E)
# method notes: HiBiT cellular BRAF V600E degradation assay
# Assay type: cell-based
# test settings: A375.10 cells, 24 h incubation; Emax = amount of residual protein remaining in the cell after compound treatment; read-out: HiBit 24 h Emax
Give the quantity in %, number only.

Worked examples, 3 compounds total:
- compound: "O=C1CCC(Nc2ccc(C3CCN(CC(=O)N4CCN(c5ccc(-c6cnc7[nH]cc(C(=O)c8c(F)ccc(NS(=O)(=O)N9CC[C@@H](F)C9)c8F)c7c6)cc5)CC4)CC3)cc2)C(=O)N1 (some centres unmarked)"
  value observed: 16.2
- compound: "CCN(C)S(=O)(=O)Nc1cccc(C(=O)c2c[nH]c3ncc(-c4cnc(N5CCN(C(=O)CN6CCC(c7ccc(NC8CCC(=O)NC8=O)cc7)CC6)CC5)nc4)cc23)c1F (centres unmarked)"
  value observed: 8.26
- compound: "CCN(C)S(=O)(=O)Nc1cccc(C(=O)c2c[nH]c3ncc(-c4cnc(N5CCN(C(=O)NC6CCN(c7ccc(NC8CCC(=O)NC8=O)cc7F)CC6)CC5)nc4)cc23)c1F (centres unmarked)"
  value observed: 7.91

What Emax value was documented for this compound, CCN(C)S(=O)(=O)Nc1ccc(F)c(C(=O)c2c[nH]c3ncc(-c4ccc(N5CCN(CCC6CCN(c7ccc(NC8CCC(=O)NC8=O)cc7)CC6)C(=O)C5)nc4)cc23)c1F (centres unmarked) ?
13.9

Name the recorded Emax for CCN(C)S(=O)(=O)Nc1ccc(F)c(C(=O)c2c[nH]c3ncc(-c4cnc(N5CCC(NCC(=O)N6CCC(c7ccc(OC8CCC(=O)NC8=O)cc7)CC6)CC5)nc4)cc23)c1F (centres unmarked) .
12
